Test system: F380Y
Test: modulators of BK channel variants, profiling panel, selectivity assay, cell-based, U2OS BacMam, thallium flux, beta subunits (AID 1259406);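 further: initial slope of Thallos dye fluorescence rise after thallium is added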
Details: at 30 µM
Active and inactive are the calls of the source.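 How the source made its calls: active means thallium flux through the channel raised or lowered by more than 3 SD from vehicle-only wells, actives on both sides; inactive means the rest.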
Hi there, use one of these labels in your reply, thanks! y = active, n = inactive

stdin: Fill in: this test's call for CCOC(=O)c1cnc(C(F)(F)F)nc1NN=Cc1c(Cl)cccc1Cl is ___
stdout: n

stdin: Fill in: this test's call for CN1C2CCC1CC(OC(c1ccccc1)c1ccccc1)C2 (configuration not stated) is ___
stdout: y

stdin: Fill in: this test's call for COc1ccc(CCNC(=O)c2ccccc2NC(=O)c2ccccc2C)cc1OC is ___
stdout: n
